# run.description: NCI Yeast Anticancer Drug Screen. Data for the sgs1 mgt1 strain (AID 161);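 further: 0% = growth of cultures given vehicle only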
# settings: S. cerevisiae sgs1 mgt1 strain, at 50.0 µM (retest, dose inferred, filed as 5.0), hits give high values
The panel holds about 79,000 compounds, 15% with a hit somewhere; the sample as a whole holds those more often. The source made the active and inactive calls. No stated cut-off is given here; in the data, active means growth inhibition above about 70%; inactive means the rest.
Recorded growth inhibition for the following compounds
value.kind: growth inhibition

| compound | test.value |
| --- | --- |
| CCC(C)n1c(C)nc2c(N)cc(C(F)(F)F)cc21 (centres undefined) | 38% (inactive) |
| OC1CN(C2CCCCC2)CC1C1(O)CCN(C2CCCCC2)C1 (centres undefined) | 11% (inactive) |
| O=C(COc1ccc(Cl)c(Cl)c1)Nc1ccc[n+](Cc2ccc(Cl)c(Cl)c2)c1 | 99% (active) |
| Cc1ccc(S(=O)(=O)Oc2c([N+](=O)[O-])cc(C)cc2[N+](=O)[O-])cc1 | 21% (inactive) |

----------
# run.description: NCI Yeast Anticancer Drug Screen. Data for the cln2 rad14 strain (AID 165);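 further: 0% = growth equal to vehicle treated cultures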
# settings: S. cerevisiae cln2 rad14 strain, at 50.0 µM, hits give high values
About 79,000 compounds went through this panel and 15% of them were active in at least one assay; those are over-represented in the sample as a whole.
Recorded growth inhibition for the following compounds
value.kind: growth inhibition (%)

| compound | test.value |
| --- | --- |
| CCC(C)n1c(C)nc2c(N)cc(C(F)(F)F)cc21 (stereo unspecified) | 98.8 |
| Cc1c(N)nc(C2CC(=O)N2CC(N)C(N)=O)nc1C(=O)NC(C(=O)NC(C)C(O)C(C)C(=O)NC(C(=O)NCCc1nc(-c2nc(C(=O)NCCNCC(C)O)cs2)cs1)C(C)O)C(OC1OC(CO)C(O)C(O)C1OC1OC(CO)C(O)C(OC(N)=O)C1O)c1cnc[nH]1 (stereo unspecified) | 90.6 |
| [C](#[C][Sn]([c]1ccccc1)([c]1ccccc1)[c]1ccccc1)[Sn]([c]1ccccc1)([c]1ccccc1)[c]1ccccc1 | 98.4 |
| CCCCCCCCC(N)CCCCCCCC | 98.8 |
| CC1=CC(O)(c2ccc(-c3ccccc3Cl)cc2)OC1=O (stereo unspecified) | 90.9 |
| O=[N+]([O-])c1ccc(S(=O)/N=C/c2ccccc2)c([N+](=O)[O-])c1 (stereo unspecified) | 9 |
| CCC(C)(C)NCCCCCNc1cc(OC)cc2cccnc12 | 21.4 |
| CN(C)Cc1ccccc1C(=O)C(=O)c1ccccc1CN(C)C | 46.3 |
| CC(=O)C1CCC2C3CC(F)C4(O)CC(O)CCC4(C)C3CCC12C (stereo unspecified) | -9.95 |
| Cc1ccc(S(=O)(=O)OCCc2ccc(Cl)cc2)cc1 | -16.5 |
| ONC(=Nc1cccc2ccccc12)C(=Nc1cccc2ccccc12)NO | -41.9 |

----------
# run.description: NCI Yeast Anticancer Drug Screen. Data for the cln2 rad14 strain (AID 165);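 further: 0% = growth equal to vehicle treated cultures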
# settings: S. cerevisiae cln2 rad14 strain, at 50.0 µM (retest, dose inferred, filed as 5.0)
The panel holds about 79,000 compounds, 15% with a hit somewhere; the sample as a whole holds those more often. Active and inactive are the calls of the source. No stated cut-off is given here; in the data, active means growth inhibition above about 70%; inactive means the rest.
Possible outcomes: active, inactive

| compound | class |
| --- | --- |
| O=S(=O)(NC(=S)Nc1ccccc1)c1ccc(Br)cc1 | inactive |
| CC(C)OC(=O)c1ccccc1C(=C1C=C(Br)C(=O)C(Br)=C1)c1cc(Br)c(O)c(Br)c1 | active |
| C=CC(=O)Oc1ccccc1/C=C/C(=O)CCCCCC | active |
| CC1(C)COC(C)(C(=O)O)OC1 | inactive |
| CCCC1c2ccc(O)cc2CC1c1ccc(O)cc1 (stereo unspecified) | active |
| COc1cc2c(cc1O)C1C(O)C(O)C=C3CCN(C2)C31 (stereo unspecified) | active |
